test system: SF-268 CNS; test: NCI tumour cell line growth inhibition, 48 h; in the data active means GI50 below about 0.43 µM; inactive means the rest
Classes used: 1 = active, 0 = inactive

compound	assayed target	label value
CCOC(=O)C(=Cc1c(-c2ccccc2)[nH]c2ccccc12)C(=O)OCC	SF-268 CNS	0
C=C1C(=O)C23CC1CCC2C12CO[C@@]3(O)[C@@H](O)C1C(C)(C)C=CC2=O (stereo partly specified)	SF-268 CNS	0
Cc1cc(Nc2cc(N3CCN(C)CC3)nc(C#Cc3ccccc3)n2)n[nH]1	SF-268 CNS	0
N#CC1=C(N)NC(=S)C(C#N)C12Nc1ccccc1S2 (stereo unspecified)	SF-268 CNS	0
CC[C@H](C)[C@H](NC(=O)N[C@@H](C)c1ccccc1)C(=O)N(C)[C@H](C[C@@H](OC(C)=O)c1nc(C(=O)N[C@@H](Cc2ccccc2)C[C@H](C)C(=O)OC)cs1)C(C)C	SF-268 CNS	0
COc1ccc(CNC(=O)c2ccc(-c3cc(-c4nnc(C)o4)ccc3C)cc2)cc1	SF-268 CNS	0
NC(=O)c1c(NC(=O)c2cccc(C(F)(F)F)c2)sc2c1CCC(=O)C2	SF-268 CNS	0
CC(=O)OC1Oc2cc(C)c(C)cc2-c2oc(=O)c(-c3ccccc3)cc21 (stereo unspecified)	SF-268 CNS	0
COc1ccc(-c2nn3ncccc3c2-c2ccnc(Nc3cccc(C(F)(F)F)c3)n2)cc1	SF-268 CNS	0
Fc1ccc(-c2cc(-c3cn[nH]c3-c3ccccn3)ccn2)cc1	SF-268 CNS	0
O=C1c2cc3c(cc2-c2c1c1cc(F)c(F)cc1c(=O)n2C[C@H](O)CO)OCO3	SF-268 CNS	1
CCCCCCCCCCCCNC(=O)[C@H]1CSC(c2ccsc2)N1 (stereo partly specified)	SF-268 CNS	0
Cc1ccc(-c2cc(C(Cl)Cl)on2)cc1	SF-268 CNS	0
Cc1cc([C@H](C)Nc2nccc(N3C(=O)OC[C@@H]3[C@H](C)F)n2)ncc1-c1ccnc(C(F)(F)F)c1	SF-268 CNS	0
CCCC(=O)Nc1cn(COC)c(C(=O)N2C[C@H]3C[C@@]34C2=CC(=O)c2[nH]cc(C)c24)n1	SF-268 CNS	0
O=C1C2=C(Nc3cc([N+](=O)[O-])ccc3N2)OC1c1ccc(C2OC3=C(Nc4ccc([N+](=O)[O-])cc4N3)C2=O)cc1 (stereo unspecified)	SF-268 CNS	0
CC(=O)[O-].O=[N+]([O-])c1ccc([O-])c(C=NCCN=Cc2cc([N+](=O)[O-])ccc2[O-])c1.[Mn+3]	SF-268 CNS	0
COC12C=C/C(=C(/C(=O)OCc3csc(SC)n3)C(=O)CCCCCCCCC3(OC)C=C/C(=C(/C(=O)OCc4cnc(SC)s4)C(=O)CCCCCCCC1)O3)O2 (stereo unspecified)	SF-268 CNS	0
COc1ccc(-c2conc2-c2ccccc2)cc1	SF-268 CNS	0
CC(C)(C)OC(=O)n1c(Cl)c(C(=O)N=C=S)c2ccccc21	SF-268 CNS	0
COc1cc(/C=C2\C(=O)Nc3ccc(Br)cc32)cc(OC)c1OC	SF-268 CNS	0

* * *

tested on: SK-MEL-5 melanoma; experiment: NCI tumour cell line growth inhibition, 48 h; in the data active means GI50 below about 0.43 µM; inactive means the rest
Labels: YES for active, NO for inactive

compound	label value
CC(=O)c1c(Nc2ccc(F)c(F)c2F)[nH]c2c(F)cc(F)cc2c1=O	YES
COc1ccccc1-c1nccc(COc2ccccc2C[C@@H](Oc2ncnc3sc(-c4ccc(F)cc4)c(-c4ccc(OCCN5CCN(C)CC5)c(Cl)c4C)c23)C(=O)O)n1	NO
N#CC1=C(N)NC(=S)C(C#N)C12Nc1ccccc1S2 (stereo not given)	NO
COc1cc(/C=C2\C(=O)Nc3ccc(Br)cc32)cc(OC)c1OC	NO
CN1CCN(CCCOc2ccc3ncnc(Nc4ccc(Oc5cccc(F)c5)c(Cl)c4)c3c2)CC1	NO

* * *

test system: A498 renal; assay: NCI tumour cell line growth inhibition, 48 h; in the data active = GI50 below about 0.43 µM; inactive = the rest
Classes used: active, inactive

compound	label value
CCn1c(-c2nonc2N)nc2c(C#CC(C)(C)O)ncc(OC[C@@H]3CCCN3)c21	active
O=C(Nc1cccc(Cl)c1)c1cc(Cl)ccc1O	active
COc1ccc(C2NC(=S)NC3=C2COc2ccc(F)cc23)cc1OC (stereo not given)	inactive
N#Cc1c(-c2ccc(Cl)cc2)csc1NC(=O)Nc1cccc(C(F)(F)F)c1	inactive
CCOc1cccc(/C=N/NC(=O)Cc2ccc(Nc3ccnc(C(F)(F)F)c3)cc2)c1O	inactive

* * *

system: HL-60(TB) leukemia; assay: NCI tumour cell line growth inhibition, 48 h

molecule	TGI
C=C[C@@]1(C)CC(=O)[C@]2(O)[C@@]3(C)[C@@H](O)CCC(C)(C)[C@@H]3[C@H](O)[C@@H](OC(C)=O)[C@@]2(C)O1	> 100 µM
CCCCCc1cc(CCCC)sc1-c1ccco1	58.8 µM
O=C(NCCCn1ccnc1[N+](=O)[O-])C(=O)NCCCn1ccnc1[N+](=O)[O-]	> 100 µM
O=C1[C@H]2ON(c3ccccc3)C(c3cccc([N+](=O)[O-])c3)[C@H]2C(=O)N1c1ccc(Cc2ccc(N3C(=O)[C@@H]4ON(c5ccccc5)C(c5cccc([N+](=O)[O-])c5)[C@@H]4C3=O)cc2)cc1 (stereo partly drawn)	> 100 µM
C[N+]1(CCCCN2c3ccccc3Sc3cc(N=[N+]=[N-])ccc32)CCN(C(=O)CCNC(=O)Cc2ccc(C(=O)c3ccccc3)cc2)CC1	35.5 µM
CCOC(=O)OC1(c2ccccc2)CCN(C)CC1	> 100 µM
Nc1cc2nc(-c3ccccc3)cn2cn1	> 100 µM
CC(=O)Oc1ccc2c(c1)O/C(=C\c1ccc(O)cc1)C2=O	> 100 µM

* * *

tested on: K-562 leukemia; assay: NCI tumour cell line growth inhibition, 48 h
experimental readout: TGI

molecule	value observed
CCOP(=O)(COCCn1nc(Br)c(=O)[nH]c1=O)OCC	> 100 µM
CCOC(=O)C(=Cc1c(-c2ccccc2)[nH]c2ccccc12)C(=O)OCC	24 µM
C=C[C@@]1(C)CC(=O)[C@]2(O)[C@@]3(C)[C@@H](O)CCC(C)(C)[C@@H]3[C@H](O)[C@@H](OC(C)=O)[C@@]2(C)O1	> 100 µM
CC(=O)[O-].O=[N+]([O-])c1ccc([O-])c(C=NCCN=Cc2cc([N+](=O)[O-])ccc2[O-])c1.[Mn+3]	> 100 µM
NC(=O)c1ncn(C2OC(CO)C(O)C2O)c1NC(=S)NC(=O)c1ccccc1 (stereo not given)	> 100 µM

* * *

log10 TGI by entry:
test system: SF-539 CNS; assay: NCI tumour cell line growth inhibition, 48 h
experimental readout: log10 TGI (log10 of the value in µM)

compound	log10 TGI
CC1(C)Oc2ccccc2N2O[C@@H]3C(=O)N(c4ccccc4)C(=O)[C@@H]3C21c1ccccc1 (stereo partly drawn)	1.50
Cc1ccc(N2C(=O)/C(=C3\Sc4c(nc(C)n(C)c4=O)N3c3ccccc3)SC2=S)cc1	1.53
CCOc1cccc(/C=N/NC(=O)Cc2ccc(Nc3ccnc(C(F)(F)F)c3)cc2)c1O	1.16
CCCCOP1(=O)C=CC(Cl)=C(C)C1 (stereo not drawn)	1.56
Cc1ccc(S(=O)c2ccc([N+](=O)[O-])c3nonc23)cc1 (stereo not drawn)	1.59
Cc1cc(Nc2cc(N3CCN(C)CC3)nc(C#Cc3ccccc3)n2)n[nH]1	1.03
COc1ccc(CCn2ccc(=O)c(O)c2C)cc1OC	1.87
CC(=O)OC1Oc2cc(C)c(C)cc2-c2oc(=O)c(-c3ccccc3)cc21 (stereo not drawn)	-0.12

* * *

system: OVCAR-4 ovarian; assay: NCI tumour cell line growth inhibition, 48 h
The entries below come with measured TGI values attached.

compound	TGI
CCC1(Cl)C(=O)NC(=O)N(C2CC(O)C(CO)O2)C1N=[N+]=[N-] (stereo not drawn)	> 100 µM
O=C(Nc1cccc(Cl)c1)c1cc(Cl)ccc1O	> 100 µM
Fc1ccc(OCc2ccc3nc(-c4ccccc4)c(Cl)nc3c2)cc1	> 100 µM
COc1ccccc1Cn1c2c(c3cc(O)ccc31)C(=O)c1ccccc1C2=O	12 µM
CC(C)c1ccc2c(c1)c(SC(C)(C)C)c(CC(C)(C)C(=O)O)n2Cc1ccc(Cl)cc1	49 µM
CC1OC2OC3C(OCC(O)C3O)OC(=O)[C@]34CCC(C)(C)CC3C3=CCC5[C@@]6(C)C[C@H](O)[C@H](OC7OC(CO)C(O)C(O)C7OC7OC(COC(=O)CC(C)(O)CC(=O)OC1C(OC1OC(CO)C(O)C(O)C1O)C2O)C(O)C(O)C7O)[C@@](C)(CO)C6CC[C@@]5(C)[C@]3(C)CC4 (stereo partly drawn)	16.1 µM
CC(C)(C)C#CI1OC(=O)c2ccccc21	8.08 µM
COc1ccc(-c2nn(-c3cccc(Cl)c3)cc2-c2cc(-c3cccs3)no2)cc1	36.4 µM
CC(=O)[O-].O=[N+]([O-])c1ccc([O-])c(C=NCCN=Cc2cc([N+](=O)[O-])ccc2[O-])c1.[Mn+3]	> 100 µM
CCOC(=O)c1cc(C(=O)O)c(=O)n2c1[nH]c1ccccc12	> 100 µM
Fc1cccc(F)c1C1SCc2nc3cc(Cl)ccc3n21 (stereo not drawn)	> 100 µM
O=C(/C(=N/Nc1cn[nH]c(=O)c1Cl)c1ccccc1)c1ccccc1	> 100 µM
C=CCN(c1cc(OC)c2[nH]c(C(=O)O)c(C)c2c1[N+](=O)[O-])S(C)(=O)=O	> 100 µM
CN1C2CCC1C(CO)C(=O)C2 (stereo not drawn)	> 100 µM
O=C1CCCC2=C1CC1=C(CCCC1=O)N2c1ccc(-c2ccccc2)cc1	> 100 µM
CCOC(=O)c1c(-c2ccc(OC)cc2)c(C#N)c(=S)n(C2OC(CO)C(O)C(O)C2O)c1C (stereo not drawn)	> 100 µM
CCCCCCCCCCCCCCCCCCNC(=O)[C@H]1CSC(c2ccc(F)c(OC)c2)N1 (stereo partly drawn)	3.62 µM
O/N=C/[C@H]1COC2(CCCCC2)O1	> 100 µM
COc1cc2c(c(OC)c1OC)-c1ccc(SC)c(=O)cc1[C@@H](NC(=O)c1ccc(F)cc1)CC2	91.1 µM
CC(=O)OC1COC(N2c3ccccc3[C@@H]3CCc4c([nH]c5ccccc45)[C@@H]32)C(OC(C)=O)C1OC(C)=O (mixture of isomers)	> 100 µM
O=C(O)C(Cc1c[nH]c2ccccc12)N1C(=O)c2ccccc2C1=O (stereo not drawn)	> 100 µM
COc1ccc(-c2cn(-c3cc(OC)c(OC)c(OC)c3)c(=O)n2-c2ccccc2)cc1	> 100 µM
BrC(Br)([P+](c1ccccc1)(c1ccccc1)c1ccccc1)[P+](c1ccccc1)(c1ccccc1)c1ccccc1	43.3 µM
Cc1cccc2c(N)c3cccc(C(=O)NCC[N+](C)(C)[O-])c3nc12	28.2 µM
C(/C=C/N1CCCC1)=C\c1nc(N2CCCC2)c2ccccc2n1	27.8 µM
CCn1c(-c2nonc2N)nc2c(C#CC(C)(C)O)ncc(OC[C@@H]3CCCN3)c21	> 25 µM
COc1ccc(-c2oc3cc(OC)ccc3c(=O)c2O)cc1	> 31.6 µM
Cc1cc2c(-c3nc4ccccn4c3NC34CC5CC(CC(C5)C3)C4)c(O)c(O)cc2c(O)c1-c1c(C)cc2c(-c3nc4ccccn4c3NC34CC5CC(CC(C5)C3)C4)c(O)c(O)cc2c1O	> 25 µM
CCC1(c2ccc(OC)c(OC)c2)CCN2C(=O)C(O)CC21 (stereo not drawn)	> 100 µM
COC(=O)Cc1c2n(c3ccccc13)C(=O)N1c3ccccc3C(CC(=O)OC)C21 (stereo not drawn)	57.1 µM
CCOC(=O)C(=Cc1c(-c2ccccc2)[nH]c2ccccc12)C(=O)OCC	> 76.5 µM
Cc1nc2cc(Nc3nc(Nc4ccc(F)cc4)nc(-c4ccc(Cl)cc4)n3)ccc2n1Cc1ccccc1	17.6 µM
COc1cc2c3cc1Oc1cc(ccc1O)C[C@@H]1c4c(cc(OC)c(O)c4Oc4ccc(cc4)C[C@@H]3[N+](C)(C)CC2)CC[N+]1(C)C	> 100 µM
CCOC(=O)/N=c1\ssc(Cl)c1Cl	> 100 µM
Cc1ccc2c(C(C[N+](=O)[O-])c3ccco3)c(-c3ccccc3)[nH]c2c1 (stereo not drawn)	> 100 µM
O=c1n(CCCN2CCOCC2)nc2n1-c1ccc3ccccc3c1SC2	> 100 µM
Nc1nc(Cl)cc(NCCCCCCNc2cc(Cl)nc(N)n2)n1	> 100 µM
C=C(C[N+](C)(C)C)N/N=C/c1oc(-c2ccc(OC)c(OC)c2)c(-c2ccc(OC)c(OC)c2)c1[N+](=O)[O-]	38 µM
